Biological target: cTRPV1-A578E (Gallus gallus, UniProt Q8QFN9, A578E)
Sequence (Q8QFN9 1-843 A578E): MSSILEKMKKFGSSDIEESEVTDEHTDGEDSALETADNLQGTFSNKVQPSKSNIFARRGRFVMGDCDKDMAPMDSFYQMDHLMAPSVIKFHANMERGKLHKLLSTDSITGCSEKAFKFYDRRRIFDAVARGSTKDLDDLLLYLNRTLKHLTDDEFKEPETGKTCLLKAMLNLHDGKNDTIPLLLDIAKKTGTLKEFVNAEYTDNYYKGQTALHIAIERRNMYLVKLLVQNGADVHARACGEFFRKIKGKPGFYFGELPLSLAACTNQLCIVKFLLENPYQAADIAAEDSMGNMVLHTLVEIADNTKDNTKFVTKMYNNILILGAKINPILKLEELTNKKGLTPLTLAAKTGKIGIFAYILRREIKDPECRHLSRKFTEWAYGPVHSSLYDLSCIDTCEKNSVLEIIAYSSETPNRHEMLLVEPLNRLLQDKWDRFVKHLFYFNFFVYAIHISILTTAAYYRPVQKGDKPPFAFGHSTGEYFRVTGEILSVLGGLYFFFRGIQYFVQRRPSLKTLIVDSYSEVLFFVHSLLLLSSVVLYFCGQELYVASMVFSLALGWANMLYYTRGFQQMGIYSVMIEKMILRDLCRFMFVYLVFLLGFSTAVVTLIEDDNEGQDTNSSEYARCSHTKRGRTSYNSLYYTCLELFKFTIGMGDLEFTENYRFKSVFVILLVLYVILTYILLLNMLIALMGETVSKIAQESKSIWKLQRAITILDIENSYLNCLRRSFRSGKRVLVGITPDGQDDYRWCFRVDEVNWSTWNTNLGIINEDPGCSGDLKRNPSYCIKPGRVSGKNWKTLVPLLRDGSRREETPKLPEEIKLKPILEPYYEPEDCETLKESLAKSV
Assay: cell-based
pEC50: −log10 of the molar value.

{"columns": ["COMPOUND", "pEC50"],
 "data": [
  ["COc1cc(CNC(=O)CCCC/C=C/C(C)C)ccc1O [capsaicin]", 5.14]
]}
